compounds and their reported selectivity ratio
Assay: Selectivity index, ratio of CC50 for human HepG2 cells to EC50 for asexual blood stage Plasmodium falciparum W2
Assay type: toxicity
Conditions: read-out: Ratio CC50/EC50

Task: # selectivity ratio lookup, item CC(=O)OC[C@]12CCC(C)=C[C@H]1O[C@@H]1[C@H](O)[C@@H](OC(C)=O)[C@@]2(C)[C@]12CO2 (single isomer, unassigned)
Output: 4.43

Task: # selectivity ratio lookup, item `CC1=CC[C@@]23COC(=O)[C@@H](O)[C@H](C)CCOC(=O)/C=C/C=C\C(=O)O[C@@H]4C[C@@H](O[C@@H]2C1)[C@@]1(CO1)[C@]43C`
Output: 7.95

###

Assay: Cytotoxicity against human HepG2 cells incubated for 72 hrs by Hoechst 33342 staining based assay
Assay type: toxicity, cell-based
Conditions: read-out: pCC50 (converted)
Experimental endpoint: CC50 at 72 h (nM)
Give your result in nM as a bare value.

Task: # CC50 at 72 h lookup, item `CC1=CC[C@@]23COC(=O)[C@@H](O)[C@H](C)CCOC(=O)/C=C/C=C\C(=O)O[C@@H]4C[C@@H](O[C@@H]2C1)[C@@]1(CO1)[C@]43C`
Output: 3.55

###

System: Plasmodium falciparum
Experiment: Antimalarial activity against asexual blood stage Plasmodium falciparum W2 incubated for 72 hrs by Hoechst 33342 staining based assay
Type: functional, organism-based
Experimental endpoint: pEC50
// scale note: pEC50 = -log10(conc_M); give the bare number

Task: # pEC50 lookup, item `CC1=CC[C@@]23COC(=O)[C@@H](O)[C@H](C)CCOC(=O)/C=C/C=C\C(=O)O[C@@H]4C[C@@H](O[C@@H]2C1)[C@@]1(CO1)[C@]43C`
Output: 9.35

###

Assay: Cytotoxicity against human primary hepatocytes
Assay type: toxicity, cell-based, Hepatocyte
Conditions: read-out: CC50
Experimental endpoint: CC50 (nM)
Give your result in nM as a bare value.

Task: # CC50 lookup, item `CC1=CC[C@@]23COC(=O)[C@@H](O)[C@H](C)CCOC(=O)/C=C/C=C\C(=O)O[C@@H]4C[C@@H](O[C@@H]2C1)[C@@]1(CO1)[C@]43C`
Output: 316

###

Assay: Selectivity index, ratio of CC50 for primary human hepatocytes to EC50 for liver stage Plasmodium vivax schizont infected in human hepatocytes
Assay type: toxicity, cell-based
Conditions: read-out: Ratio CC50/EC50
Experimental endpoint: selectivity ratio
When you answer, write just the number.

compound="CC(=O)OC[C@]12CCC(C)=C[C@H]1O[C@@H]1[C@H](O)[C@@H](OC(C)=O)[C@@]2(C)[C@]12CO2 (single isomer, unassigned)" recorded_value=28.7

Next compound, selectivity ratio to be filled in.
Task: # selectivity ratio lookup, item `CC1=CC[C@@]23COC(=O)[C@@H](O)[C@H](C)CCOC(=O)/C=C/C=C\C(=O)O[C@@H]4C[C@@H](O[C@@H]2C1)[C@@]1(CO1)[C@]43C`
Output: 77.7

###

Test: Selectivity index, ratio of CC50 for primary human hepatocytes to EC50 for liver stage Plasmodium vivax hypnozoite infected in human hepatocytes
Format: toxicity, cell-based
Settings: read-out: Ratio CC50/EC50
Experimental endpoint: selectivity ratio

Consider the worked cases shown below.
molecule=COc1ccc(C[C@H](N)C(=O)N[C@H]2[C@@H](O)[C@H](n3cnc4c(N(C)C)ncnc43)O[C@@H]2CO)cc1 recorded_value=2.25
molecule=CC1=CC[C@@]23COC(=O)[C@@H](O)[C@H](C)CCOC(=O)/C=C/C=C\C(=O)O[C@@H]4C[C@@H](O[C@@H]2C1)[C@@]1(CO1)[C@]43C recorded_value=10.1
molecule="CC(=O)OC[C@]12CCC(C)=C[C@H]1O[C@@H]1[C@H](O)[C@@H](OC(C)=O)[C@@]2(C)[C@]12CO2 (single isomer, unassigned)" recorded_value=10.7

Next molecule, selectivity ratio to be filled in.
Task: # selectivity ratio lookup, item `CO[C@@H]1C[C@@H](C[C@H]2CC[C@H](C)[C@H]([C@@H](C)C(=O)O)O2)O[C@]2(O[C@](C)([C@H]3CC[C@@](C)([C@@H]4O[C@@H]([C@H]5O[C@@](O)(CO)[C@H](C)C[C@@H]5C)C[C@@H]4C)O3)C[C@H]2C)[C@@H]1C`
Output: > 16.3
